- measured_on: ornithine decarboxylase (ODC) (Rattus norvegicus)
- Construct: is prepared from the livers of rats which have been injected with thioacetamide; from tissue; host or cells: liver of rats injected with thioacetamide (150 mg/kg, 18 h before sacrifice); purified about ten fold by acid treatment at pH 4.6
- Sequence (P09057 1-461): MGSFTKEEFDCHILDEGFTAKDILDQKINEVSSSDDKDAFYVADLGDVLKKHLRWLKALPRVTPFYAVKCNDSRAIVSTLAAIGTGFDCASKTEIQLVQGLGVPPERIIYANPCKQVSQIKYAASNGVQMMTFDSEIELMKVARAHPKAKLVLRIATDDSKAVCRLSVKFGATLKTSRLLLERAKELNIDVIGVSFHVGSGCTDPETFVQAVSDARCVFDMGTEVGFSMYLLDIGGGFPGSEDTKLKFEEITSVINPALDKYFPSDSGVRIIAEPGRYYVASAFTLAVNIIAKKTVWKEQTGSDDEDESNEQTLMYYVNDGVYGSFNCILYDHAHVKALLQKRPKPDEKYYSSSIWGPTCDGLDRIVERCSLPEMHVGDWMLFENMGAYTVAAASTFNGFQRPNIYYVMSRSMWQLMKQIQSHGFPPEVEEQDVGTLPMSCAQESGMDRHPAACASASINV
- measurement_description: in vitro inhibition (time-dependent inactivation) of ornithine decarboxylase (ODC) prepared from rat liver
- Type: biochemical
- assay_conditions: inhibitor at 10 μM, 37° C., pH 7.1
Half-life (t1/2) at 10 μM for assorted compounds
metric: Half-life (t1/2) at 10 μM (min)

[[record]]
compound = "C=C(CN)CC(N)C(F)F (centres unmarked)"
measured_on = "ornithine decarboxylase (ODC) (Rattus norvegicus)"
unit_string = "min"
numeric_value = 14

[[record]]
compound = "NCC(=O)CC(N)(CF)C(=O)O (centres unmarked)"
measured_on = "ornithine decarboxylase (ODC) (Rattus norvegicus)"
unit_string = "min"
numeric_value = 4.5

[[record]]
compound = "C=C(CN)CC(N)(CF)C(=O)O (centres unmarked)"
measured_on = "ornithine decarboxylase (ODC) (Rattus norvegicus)"
unit_string = "min"
numeric_value = 23

[[record]]
compound = "NCC(=O)CC(N)CF (centres unmarked)"
measured_on = "ornithine decarboxylase (ODC) (Rattus norvegicus)"
unit_string = "min"
numeric_value = 2.8

[[record]]
compound = "C=C(CN)CC(N)CF (centres unmarked)"
measured_on = "ornithine decarboxylase (ODC) (Rattus norvegicus)"
unit_string = "min"
numeric_value = 6.4


====

- measured_on: ornithine decarboxylase (ODC) (Rattus norvegicus, UniProt P09057)
- Construct: is prepared from the livers of rats which have been injected with thioacetamide; from tissue; host or cells: liver of rats injected with thioacetamide (150 mg/kg, 18 h before sacrifice); purified about ten fold by acid treatment at pH 4.6
- measurement_description: in vitro inhibition (time-dependent inactivation) of ornithine decarboxylase (ODC) prepared from rat liver
- Type: biochemical
- assay_conditions: infinite concentration of inhibitor, 37° C., pH 7.1, Kitz and Wilson
# .tau.50 (half-life, at infinite concentration of inhibitor) >= 3 min gives Met, anything below gives Not met

[[record]]
compound = "C=C(CN)CC(N)(CF)C(=O)O (centres unmarked) [D]"
discrete_label = "Met"

[[record]]
compound = "C=C(CN)CC(N)CF (centres unmarked) [B, 1-fluoro-2,5-diamino-4-methylene-pentane]"
discrete_label = "Not met"

[[record]]
compound = "NCC(=O)CC(N)(CF)C(=O)O (centres unmarked) [A]"
discrete_label = "Met"

[[record]]
compound = "NCC(=O)CC(N)CF (centres unmarked) [C, 1-fluoro-2,5-diamino-4-oxo-pentane]"
discrete_label = "Not met"

[[record]]
compound = "C=C(CN)CC(N)C(F)F (centres unmarked) [E]"
discrete_label = "Not met"

